Sourced from ChEMBL document CHEMBL1268909

test: Apparent permeability by PAMPA membrane; format: ADME; settings: read-out: permeability
Decision: Papp compared against 8 ×10⁻⁶ cm/s; not below it gives Yes, below it gives No.

Worked examples follow.
QUERY_SMILES	GROUP
NC(=O)c1cc(-c2ccnc(N)n2)[nH]c1-c1ccccc1	No
NC(=O)c1cc(-c2nc(N)ncc2F)[nH]c1-c1ccccc1	No
NC(=O)c1c(-c2ccccc2)[nH]c(-c2ccnc(N)n2)c1I	No

Tell me whether Papp is at least 8 ×10⁻⁶ cm/s here: NC(=O)c1cc(-c2ccnc(N)n2)[nH]c1-c1cccs1 No

Tell me whether Papp is at least 8 ×10⁻⁶ cm/s here: NC(=O)c1cc(-c2ccnc(N)n2)[nH]c1-c1ccsc1 Yes

Hello, I need to know if CCn1c(-c2ccnc(N)n2)cc(C(N)=O)c1-c1ccccc1 has measured Papp not below 8 ×10⁻⁶ cm/s. Thanks! Yes
